Source: ChEMBL document CHEMBL1909046

# Assay protocol: DRUGMATRIX: GABAA, Chloride Channel, TBOB radioligand binding (ligand: [3H] TBOB)
# Format: cell membranes, Rattus norvegicus, Wistar, Cerebral cortex, Membrane
# Run conditions: Not Active = under 50% inhibition at 10 µM

{"Structure notation": "CC1(C)[C@@H](O[C@H]2O[C@H](C(=O)O)[C@@H](O)[C@H](O)[C@H]2O[C@@H]2O[C@H](C(=O)O)[C@@H](O)[C@H](O)[C@H]2O)CC[C@]2(C)[C@H]3C(=O)C=C4[C@@H]5C[C@@](C)(C(=O)O)CC[C@]5(C)CC[C@@]4(C)[C@]3(C)CC[C@@H]12", "Ki": "Not Active"}
{"Structure notation": "c1ccc2c(c1)cc1ccc3cccc4ccc2c1c34", "Ki": "Not Active"}
{"Structure notation": "CCC1(c2ccccc2)C(=O)NCNC1=O", "Ki": "Not Active"}
